growth inhibition overview
- test_description: NCI Yeast Anticancer Drug Screen. Data for the mec2-1 strain (AID 157)
- condition_description: S. cerevisiae mec2-1 strain, at 5.0 µM (retest, dose inferred, filed as 0.5), hits give high values
About 79,000 compounds went through this panel and 15% of them were active in at least one assay; those are over-represented in the sample as a whole.

>  <compound>
CC1CN(CC(O)c2ccc(Br)cc2)CC(C)O1 (stereo unspecified)

>  <growth inhibition [%]>
6

$$$$
>  <compound>
O=c1cc(-c2ccccc2)[nH]c2ccc(N3CCCC3)cc12

>  <growth inhibition [%]>
7

$$$$
>  <compound>
CCC1OC(OC)C=CC1=O (stereo unspecified)

>  <growth inhibition [%]>
-10

$$$$
>  <compound>
Cc1ccc(-c2c(C#N)c(-c3ccccc3)n(NS(=O)(=O)c3ccc(C)cc3)c(=O)c2C#N)cc1

>  <growth inhibition [%]>
28

$$$$
>  <compound>
COc1ccc(OC)c(N=Nc2c(C)[nH]n(C(N)=S)c2=O)c1

>  <growth inhibition [%]>
-3

$$$$
>  <compound>
CC(C)CNc1cc(Cl)nc(N)n1

>  <growth inhibition [%]>
4

$$$$
>  <compound>
C[CH2][Sn]([CH2]C)([O]C(=O)c1cccc(OC)c1)[O][Sn]([CH2]C)([CH2]C)[O]C(=O)c1cccc(OC)c1

>  <growth inhibition [%]>
30

$$$$
>  <compound>
O=C(/C=C\c1ccccc1)N1c2ccccc2CC1c1c[nH]c2ccccc12 (stereo unspecified)

>  <growth inhibition [%]>
-1

$$$$
>  <compound>
O=[N+]([O-])c1ccc(Oc2c(Cl)cccc2Cl)cc1

>  <growth inhibition [%]>
-13

$$$$
>  <compound>
N#CC1Oc2ccccc2N1C(=O)c1ccccc1 (stereo unspecified)

>  <growth inhibition [%]>
0

$$$$
>  <compound>
Oc1ccc(-c2ccccc2)cc1Br

>  <growth inhibition [%]>
3

$$$$
